- assay.procedure: Phase I ascending single oral dose pharmacokinetics in healthy male subjects
- Type: in vivo, human
- assay.context: male, human, plasma, oral; healthy males; 0.6 mg; calculated for 1/6 subjects; read-out: mean t½ (converted)
- Procedure: The study was a Phase I, randomised, double-blind, placebo-controlled, ascending single oral dose, safety, tolerability, pharmacokinetic (PK) and pharmacodynamics (PD) study of IP2015 in healthy male subjects. Each subject received one oral dose of IP2015 or matched placebo. The starting dose of IP2015 was 0.01 mg in Cohort 1. […] The doses in the remaining five cohorts were to be determined based on the dose escalation criteria. […]

compound: COc1cc2ccc(OC3CC4CCC(C3)N4)cc2oc1=O (stereo not shown)
half-life / h: 14.5

====

- assay.procedure: Phase I ascending single oral dose pharmacokinetics in healthy male subjects
- Assay type: in vivo, human
- assay.context: male, human, plasma, oral; healthy males; range of means across 5.4 mg to 16.2 mg doses; read-out: mean T½

molecule: COc1cc2ccc(OC3CC4CCC(C3)N4)cc2oc1=O (stereo not shown) [IP2015]
half-life: 23.1 to 26.3 h

====

- assay.procedure: Phase I ascending single oral dose pharmacokinetics in healthy male subjects
- Format: in vivo, human
- assay.context: male, human, plasma, oral; healthy males; across all dose levels; read-out: tmax range
parameter.measured: Tmax

compound: COc1cc2ccc(OC3CC4CCC(C3)N4)cc2oc1=O (stereo not shown) [IP2015]
measurement: 1 to 6 h

====

- assay.procedure: Phase II single oral dose pharmacokinetics in male patients with ED
- Type: in vivo
- assay.context: human, plasma, 10 mg single oral dose
parameter.measured: Cmax (ng/mL)

molecule: COc1cc2ccc(OC3CC4CCC(C3)N4)cc2oc1=O (stereo not shown) [IP2015]
readout.units: ng/mL
measurement: 15.7

====

- assay.procedure: Phase II single oral dose pharmacokinetics in male patients with ED
- Assay type: in vivo
- assay.context: human, plasma, 10 mg single oral dose, read-out: mean AUC0-t
parameter.measured: AUC(0-t)

molecule: COc1cc2ccc(OC3CC4CCC(C3)N4)cc2oc1=O (stereo not shown) [IP2015]
measurement: 287 ng·h/mL

====

- assay.procedure: Phase I ascending single oral dose pharmacokinetics in healthy male subjects
- Assay type: in vivo, human
- assay.context: male, human, plasma; healthy males; range of medians across single oral doses 0.2-16.2 mg; read-out: median tmax
parameter.measured: Tmax

compound: COc1cc2ccc(OC3CC4CCC(C3)N4)cc2oc1=O (stereo not shown)
measurement: 2.25 to 5 h

====

- assay.procedure: Phase II single oral dose pharmacokinetics in male patients with ED
- Assay type: in vivo
- assay.context: male, human, plasma, po, 10 mg, 10 mg single oral dose, read-out: tmax range

compound: COc1cc2ccc(OC3CC4CCC(C3)N4)cc2oc1=O (stereo not shown)
Tmax: 1 to 8.53 h
